Source listed as patent US6211227A.

test system: bladder; experiment: animal or person; conditions: Rattus norvegicus, po, 1 h, read-out: Contraction interval
endpoint: response vs control in vivo at 1 mg/kg (%)
Record the value in %, omitting the unit from your answer.

Consider the following illustrative entries.
{"columns": ["compound", "response vs control in vivo at 1 mg/kg, %"],
 "data": [
  ["CC1(C)Oc2ccc(C#N)cc2C(N2CCCC2=O)C1O (centres unmarked) [Cromakalim, cromakalim, reference compound]", 124],
  ["O=C1c2ccc(NC(=O)C(F)(F)F)cc2S(=O)(=O)Cc2ccsc21", 131],
  ["CC(O)(C(=O)Nc1ccc2c(c1)S(=O)(=O)Cc1ccsc1C2=O)C(F)(F)F (centres unmarked)", 116]
]}

Prompt line: # get_value(readout='response vs control in vivo at 1 mg/kg', item= CC(O)(C(=O)Nc1cccc2c1C(=O)c1cccc(F)c1CS2(=O)=O)C(F)(F)F (centres unmarked) )
Response line: 114

Prompt line: Data request, read-out response vs control in vivo at 1 mg/kg, for CC(O)(C(=O)Nc1cccc2c1C(=O)c1ccccc1CS2(=O)=O)C(F)(F)F (centres unmarked)
Response line: 123

---

tested on: bladder; experiment: animal or person; conditions: Rattus norvegicus, po, 3 h, read-out: Contraction interval
endpoint: response vs control in vivo at 1 mg/kg

Previously resolved entries follow.
{"columns": ["compound", "result-value"],
 "data": [
  ["CC(O)(C(=O)Nc1ccc2c(c1)S(=O)(=O)Cc1ccsc1C2=O)C(F)(F)F (stereo not shown) [Compound 1-2]", "149%"],
  ["CC1(C)Oc2ccc(C#N)cc2C(N2CCCC2=O)C1O (stereo not shown) [Cromakalim, cromakalim, reference compound]", "142%"]
]}

Prompt line: Reported response vs control in vivo at 1 mg/kg, compound COc1ccc(NC(=O)C(C)(O)C(F)(F)F)c2c1S(=O)(=O)Cc1ccsc1C2=O (stereo not shown) [Compound 1-28] : ____
Response line: 133%

Prompt line: Look up response vs control in vivo at 1 mg/kg for this compound: CC(O)(C(=O)Nc1ccc(F)c2c1C(=O)c1sccc1CS2(=O)=O)C(F)(F)F (stereo not shown) [Compound 1-35]
Response line: 131%

Prompt line: Name the recorded response vs control in vivo at 1 mg/kg for CC(O)(C(=O)Nc1ccc(Cl)c2c1C(=O)c1sccc1CS2(=O)=O)C(F)(F)F (stereo not shown) [Compound 1-33] .
Response line: 137%

Prompt line: I have this compound here, CC(O)(C(=O)Nc1cccc2c1C(=O)c1sccc1CS2(=O)=O)C(F)(F)F (stereo not shown) [Compound 1-1] , and I need its recorded response vs control in vivo at 1 mg/kg.
Response line: 170%

Prompt line: Consider the compound shown here: CC(O)(C(=O)Nc1cccc2c1C(=O)c1ccoc1CS2(=O)=O)C(F)(F)F (stereo not shown) [Compound 1-7] What is its recorded response vs control in vivo at 1 mg/kg?
Response line: 156%

Prompt line: So what's the measured response vs control in vivo at 1 mg/kg for this one? O=C1c2ccc(NC(=O)C(F)(F)F)cc2S(=O)(=O)Cc2ccsc21 [Compound 3-5]
Response line: 145%

Prompt line: Fill blank: measured response vs control in vivo at 1 mg/kg of the compound CC(O)(C(=O)Nc1cccc2c1C(=O)c1ccccc1CS2(=O)=O)C(F)(F)F (stereo not shown) [Compound 1-3] is ____.
Response line: 144%

Prompt line: So what does the record say about response vs control in vivo at 1 mg/kg for CC(O)(C(=O)Nc1cccc2c1C(=O)c1cccc(F)c1CS2(=O)=O)C(F)(F)F (stereo not shown) [Compound 1-19] ?
Response line: 136%
